system: NIH 3T3 cells; assay: MTS/PMS cell viability assay; assay type: cell-based, mouse; conditions: 1 h exposure, read-out: Cytotoxicity NIH 3T3 EC50 ± SD
observedProperty: pEC50
Interpret pEC50 as the negative base-10 log of the concentration measured in mol/L.

Entry COCCOCCOCC(=O)N[C@@H](CCCCN)C(=O)N(CCC(=O)N[C@@H](CCCCNC(=N)N)C(=O)N(CCC(=O)N[C@@H](CCCCN)C(=O)N(CCC(=O)N[C@@H](CCCCNC(=N)N)C(=O)N(CCC(=O)N[C@@H](CCCCN)C(=O)N(CCC(=O)N[C@@H](CCCCNC(=N)N)C(=O)N(CCC(N)=O)[C@@H](C)c1ccccc1)[C@@H](C)c1ccccc1)[C@@H](C)c1ccccc1)[C@@H](C)c1ccccc1)[C@@H](C)c1ccccc1)[C@@H](C)c1ccccc1 has what pEC50? 3.66
